- measurement notes: Pharmacokinetic profile after single oral, intranasal and intravenous betahistine in beagle dogs, Example 5
- Format: in vivo
- protocol conditions: female, beagle, dog, in vivo, po, 24 mg/kg, Betahistine Plasma Concentration

{"columns": ["record smiles", "concentration at 0.333 h"],
 "data": [
  ["CNCCc1ccccn1", "7.13 ng/mL"]
]}

---

- measurement notes: Pharmacokinetic profile after single oral, intranasal and intravenous betahistine in beagle dogs, Example 5
- Assay type: in vivo
- protocol conditions: female, beagle, dog, in vivo, po, 12 mg/kg, Betahistine Plasma Concentration

{"columns": ["record smiles", "concentration at 0 h [ng/mL]"],
 "data": [
  ["CNCCc1ccccn1", 0]
]}

---

- measurement notes: Single ascending-dose clinical trial of intranasal betahistine in healthy volunteers (plasma pharmacokinetics, LC-MS/MS)
- protocol conditions: both, human, plasma, inhaled or intranasal, 20 mg

{"columns": ["record smiles", "Cmax"],
 "data": [
  ["CNCCc1ccccn1", "4.11 ng/mL"]
]}

---

- measurement notes: Pharmacokinetic profile after single oral, intranasal and intravenous betahistine in beagle dogs, Example 5
- Type: in vivo
- protocol conditions: both sexes, beagle, dog, in vivo, po, 12 mg/kg, Betahistine Plasma Concentration
property measured: concentration at 5 min (ng/mL)

{"columns": ["record smiles", "property measured", "unit symbol", "measurement"],
 "data": [
  ["CNCCc1ccccn1", "concentration at 5 min", "ng/mL", 1.97]
]}

---

- measurement notes: Pharmacokinetic profile after single oral, intranasal and intravenous betahistine in beagle dogs, Example 5
- Assay type: in vivo
- protocol conditions: female, beagle, dog, in vivo, po, 24 mg/kg, Betahistine Plasma Concentration

{"columns": ["compound", "concentration at 2 h [ng/mL]"],
 "data": [
  ["CNCCc1ccccn1 [betahistine]", 3.58]
]}

---

- measurement notes: Toxicokinetic assessment of plasma betahistine and 2-PAA after intranasal betahistine (LC-MS/MS), Example 2
- protocol conditions: both, beagle, dog, inhaled or intranasal, 80 mg

{"columns": ["record smiles", "Cmax, ng/mL"],
 "data": [
  ["CNCCc1ccccn1", 248]
]}

---

- measurement notes: Pharmacokinetic profile after single oral, intranasal and intravenous betahistine in beagle dogs, Example 5
- Type: in vivo
- protocol conditions: both sexes, beagle, dog, in vivo, po, 24 mg/kg, Betahistine Plasma Concentration
- Procedure: In this study, the pharmacokinetic profile of betahistine was evaluated after a single dose administration of betahistine in male and female beagle dogs (age 5-7 months; weight of 5-11 kg, within a range of 3 kg for each sex) for three routes of administration: oral, intranasal, and intravenous. On Day 1 of the study, betahistine (BH) was delivered orally at a dose of 12 mg/kg, 24 mg/kg, or 48 mg/kg. Each treatment group comprised 8 animals (4 males and 4 females). […]
property measured: concentration at 0.5 h (ng/mL)

{"columns": ["molecule", "property measured", "measurement"],
 "data": [
  ["CNCCc1ccccn1 [betahistine]", "concentration at 0.5 h", 14.9]
]}

---

- measurement notes: Single ascending-dose clinical trial of intranasal betahistine in healthy volunteers (plasma pharmacokinetics, LC-MS/MS)
- protocol conditions: both, human, plasma, inhaled or intranasal, 5 mg
property measured: half-life (min)

{"columns": ["record smiles", "measurement"],
 "data": [
  ["CNCCc1ccccn1", 12.5]
]}

---

- measurement notes: Single ascending-dose clinical trial of intranasal betahistine in healthy volunteers (plasma pharmacokinetics, LC-MS/MS)
- protocol conditions: both, human, plasma, inhaled or intranasal, 20 mg

{"columns": ["record smiles", "half-life [min]"],
 "data": [
  ["CNCCc1ccccn1", 31.1]
]}
